- TARGET_OR_SYSTEM: recombinant eIF4E (Homo sapiens (Human), UniProt P06730)
- Sequence (P06730 whole entry): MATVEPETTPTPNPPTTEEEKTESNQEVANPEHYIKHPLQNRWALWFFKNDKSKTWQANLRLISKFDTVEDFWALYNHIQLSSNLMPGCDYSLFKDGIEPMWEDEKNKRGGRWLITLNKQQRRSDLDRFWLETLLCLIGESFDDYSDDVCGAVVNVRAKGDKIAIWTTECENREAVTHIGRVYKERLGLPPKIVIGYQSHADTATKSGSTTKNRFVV
- PROTOCOL_SUMMARY: Fluorescence polarization competition assay for eIF4E binding potency
- CONDITIONS_USED: inhibition of eIF4E/EDA-m7GDP-ATTO-550 binding; calculated IC50 values, Table 4B; read-out: IC50
Catalogue of compounds with associated IC50
READOUT_TYPE: IC50 (nM)

                  compound_structure_string  numeric_value
0  Cc1cc(-c2cc(Cl)ccc2OCCn2c(C)nc3cc(Cl)c(N4CCN(C(C)(C)C)CC4)c(C#N)c3c2=O)c2sc(C)c(C(=O)O)c2n1           22.8
1  Cc1nc2cc(C(F)(F)F)cc(C#N)c2c(=O)n1CCOc1cc(F)c(Cl)cc1-c1ccnc2c(C(=O)O)csc12           29.8
2  O=C(O)c1cc(-c2cc(Cl)ccc2OCCn2nnc3ccccc3c2=O)ccn1          12200
3  Cc1nc2c(c(=O)n1CC#Cc1ccc(Cl)cc1-c1ccnc3c(C(=O)NS(=O)(=O)CC(C)(C)C#N)csc13)C(C#N)=C(N(C)C1CCN(CC(F)(F)F)CC1)NC2           13.2

###

- TARGET_OR_SYSTEM: recombinant eIF4E (Homo sapiens (Human), UniProt P06730)
- PROTOCOL_SUMMARY: Fluorescence polarization competition assay for eIF4E binding potency
- CONDITIONS_USED: fluorescence polarization competition, 75 nM recombinant eIF4E, 20 nM EDA-m7GDP-ATTO-550; IC50 class; read-out: elF4E FP
- Method: Compounds were screened for eIF4E binding potency using a fluorescence polarization competition assay. All binding reactions were performed in fluorescence polarization buffer (FPB) containing 20 mM Tris pH 7.5, 100 mM NaCl, 1 mM DTT, and 0.02% Tween-20. Final binding reactions contained 75 nM recombinant eIF4E (Beryllium, custom order), 20 nM EDA-m^7GDP-ATTO-550 (Jena Bioscience, NU-827-550) and varying concentrations of the inhibitory compound of interest. […]
pIC50: −log10 of the molar value.
Item-by-item account of pIC50
READOUT_TYPE: pIC50

>>> print(df.to_string())
                                   compound        result
0  N#Cc1cc2c(=O)n(CCOc3ccc(Cl)cc3-c3cncc(C(=O)O)n3)cnc2cn1 [compound 85]        < 6.00
1  Cc1cc(-c2cc(Cl)ccc2OCCn2c(C)nc3cc4c(c(C#N)c3c2=O)CCN(C)C4)c2scc(C(=O)O)c2n1 [compound 335]  6.00 to 7.30
2  Cc1nc2ccc(OC(F)F)c(C#N)c2c(=O)n1CCOc1ccc(Cl)cc1-c1ccnc2c(C(=O)O)csc12 [compound 236]        > 7.30
3  Cc1cc(-c2cc(Cl)ccc2OCCn2c(C)nc3cc(C(F)(F)F)c(C)c(C#N)c3c2=O)c2scc(C(=O)O)c2n1 [compound 363]        > 7.30

###

- TARGET_OR_SYSTEM: recombinant eIF4E (Homo sapiens (Human), UniProt P06730)
- PROTOCOL_SUMMARY: Fluorescence polarization competition assay for eIF4E binding potency
- CONDITIONS_USED: inhibition of eIF4E/EDA-m7GDP-ATTO-550 binding; calculated IC50 values, Table 4B; read-out: IC50
pIC50: −log10 of the molar value.
Recorded pIC50, one value per entry.
READOUT_TYPE: pIC50

                                   compound                          target_or_system  numeric_value
0  Cc1nc2cnc(N3CCN(C4(C)CC(F)(F)C4)CC3)c(C#N)c2c(=O)n1CCOc1ccc(Cl)cc1-c1ccnc2c(C(=O)O)csc12  recombinant eIF4E (Homo sapiens (Human), UniProt P06730)           7.72
1  Cc1cc(-c2cc(Cl)ccc2OCCn2c(C)nc3cc(C(F)(F)F)c(-c4ccc(F)c(C)n4)c(C#N)c3c2=O)c2scc(C(=O)O)c2n1  recombinant eIF4E (Homo sapiens (Human), UniProt P06730)           7.53
2  Cc1cc(-c2cc(Cl)ccc2OCCn2c(C)nc3cc(C(F)F)c(-c4cncc(F)c4)c(C#N)c3c2=O)c2scc(C(=O)O)c2n1  recombinant eIF4E (Homo sapiens (Human), UniProt P06730)           7.64
3  Cc1nc2cnc(N(C)C3CCN(C(c4ccn(C)n4)C(F)F)CC3)c(C#N)c2c(=O)n1CC#Cc1ccc(Cl)cc1-c1ccnc2c(C(=O)O)csc12 (centres unmarked)  recombinant eIF4E (Homo sapiens (Human), UniProt P06730)           7.72
4  Cc1nc2cnc(N3CCN(C)C4CC43)c(C#N)c2c(=O)n1CCOc1ccc(Cl)cc1-c1ccnc2c(C(=O)O)csc12 (centres unmarked)  recombinant eIF4E (Homo sapiens (Human), UniProt P06730)           7.81
5  Cc1nc2cnc(Nc3cc(F)cc(F)c3)cc2c(=O)n1CCOc1ccc(Cl)cc1-c1cccc(C(=O)O)c1  recombinant eIF4E (Homo sapiens (Human), UniProt P06730)           6.59
6  Cc1nc2cnc(N(C)[C@H]3[C@@H]4C[C@H]3CN(CC(C)(F)F)C4)c(C#N)c2c(=O)n1CC#Cc1ccc(Cl)cc1-c1ccnc2c(C(=O)O)csc12  recombinant eIF4E (Homo sapiens (Human), UniProt P06730)           7.88
7  Cc1nc2cnc(N3CCN([C@H]4C[C@@H](OC(F)F)C4)CC3)c(C#N)c2c(=O)n1CC#Cc1ccc(Cl)cc1-c1ccnc2c(C(=O)O)csc12  recombinant eIF4E (Homo sapiens (Human), UniProt P06730)           7.63

###

Overview of reported IC50 across a group of molecules:
- TARGET_OR_SYSTEM: recombinant eIF4E (Homo sapiens (Human))
- PROTOCOL_SUMMARY: Fluorescence polarization competition assay for eIF4E binding potency
- CONDITIONS_USED: inhibition of eIF4E/EDA-m7GDP-ATTO-550 binding by 50%; Table 4B calculated values; read-out: IC50
READOUT_TYPE: IC50

>>> df
                                   molecule                          target_or_system  readout_type      result
0  Cc1nc2cc(OC(F)F)c(C(F)(F)F)c(C#N)c2c(=O)n1CCOc1ccc(Cl)cc1-c1ccnc2c(C(=O)O)csc12  recombinant eIF4E (Homo sapiens (Human))          IC50    0.014 µM
1  Cc1nc2c(F)cc(S(C)(=O)=O)c(C#N)c2c(=O)n1CCOc1ccc(Cl)cc1-c1ccnc2c(C(=O)O)csc12  recombinant eIF4E (Homo sapiens (Human))          IC50   0.0639 µM
2  Cc1c(C(F)(F)F)cc2nc(C)n(CCOc3ccc(Cl)cc3-c3cn(C)c(=O)c4c(C(=O)O)csc34)c(=O)c2c1C#N  recombinant eIF4E (Homo sapiens (Human))          IC50   0.0138 µM
3  Cc1cc(-c2cc(Cl)ccc2OCCn2c(C)nc3cnc(C4CCC(F)(F)C4)c(C#N)c3c2=O)c2scc(C(=O)O)c2n1 (stereo not shown)  recombinant eIF4E (Homo sapiens (Human))          IC50  0.00688 µM
4  Cc1nc2cc(C(F)(F)F)cc(C#N)c2c(=O)n1CCOc1ccc(C#N)cc1-c1ccnc2c(C(=O)O)csc12  recombinant eIF4E (Homo sapiens (Human))          IC50   0.0478 µM
5  Cc1cc(-c2cc(Cl)ccc2OCCn2c(C)nc3c(F)cc(C(F)F)c(C#N)c3c2=O)c2scc(C(=O)NS(C)(=O)=O)c2n1  recombinant eIF4E (Homo sapiens (Human))          IC50   0.0164 µM
6  N#Cc1cc2c(=O)n(CCOc3ccc(Cl)cc3-c3ccnc(C(=O)O)c3)cnc2cn1  recombinant eIF4E (Homo sapiens (Human))          IC50    0.211 µM

###

- TARGET_OR_SYSTEM: recombinant eIF4E (Homo sapiens (Human), UniProt P06730)
- PROTOCOL_SUMMARY: Fluorescence polarization competition assay for eIF4E binding potency
- CONDITIONS_USED: inhibition of eIF4E/EDA-m7GDP-ATTO-550 binding; calculated IC50 values, Table 4B; read-out: IC50
# key: entry, value: IC50
READOUT_TYPE: IC50 (µM)

In [3]: df
Out[3]:
                                   molecule  numeric_value
0  Cc1nc2cnc(N(C)C3CCN(CC(F)F)CC3)c(C#N)c2c(=O)n1CC#Cc1ccc(Cl)cc1-c1ccnc2c(C(=O)NS(=O)(=O)CC(F)(F)F)csc12 [compound 1597]         0.0221
1  CCN(c1ncc2nc(C)n(CC#Cc3ccc(Cl)cc3-c3ccnc4c(C(=O)NS(=O)(=O)C(F)(F)F)csc34)c(=O)c2c1C#N)C1CCN(C2COC2)CC1 [compound 1744]         0.0115
2  Cc1nc2cnc(N(C)[C@H]3[C@@H]4CN(CC(F)F)C[C@@H]43)c(C#N)c2c(=O)n1CC#Cc1ccc(Cl)cc1-c1ccnc2c(C(=O)O)csc12 [compound 1403]        0.00876
3  Cc1sc2c(-c3cc(Cl)ccc3C#CCn3c(C)nc4cc(C(F)(F)F)c(N5CCN(C)CC5)c(C#N)c4c3=O)ccnc2c1C(=O)O [compound 1271]         0.0131
4  Cc1nc2cc(C(F)(F)F)cc(C#N)c2c(=O)n1CCOc1ccc(Cl)cc1-c1ccc(F)c2c(C(=O)O)csc12 [compound 2018]         0.0244
5  Cc1nc2cnc(N3CC4(C3)CN(C3C(C)(C)C3(C)C)C4)c(C#N)c2c(=O)n1CCOc1ccc(Cl)cc1-c1ccnc2c(C(=O)O)csc12 [compound 1476]         0.0162
6  N#Cc1cccc2nc(C(F)F)n(CCOc3ccc(Cl)cc3-c3cccc4c(C(=O)O)csc34)c(=O)c12 [compound 2017]         0.0506
7  COC(=O)c1csc2c(-c3cc(Cl)ccc3OCCn3c(C)nc4cc(C(F)(F)F)c(CN(C)C)c(C#N)c4c3=O)ccnc12 [compound 1907]          0.405
8  Cc1nc2cc(C(F)(F)F)cc(C#N)c2c(=O)n1CC#Cc1ccc(Cl)cc1-c1ccnc2c(C(=O)O)csc12 [compound 1901]         0.0357
